Subject of test: sterol C24-methyltransferase (TbSMT) (Trypanosoma brucei)
Sequence (Q4FKJ2 1-359): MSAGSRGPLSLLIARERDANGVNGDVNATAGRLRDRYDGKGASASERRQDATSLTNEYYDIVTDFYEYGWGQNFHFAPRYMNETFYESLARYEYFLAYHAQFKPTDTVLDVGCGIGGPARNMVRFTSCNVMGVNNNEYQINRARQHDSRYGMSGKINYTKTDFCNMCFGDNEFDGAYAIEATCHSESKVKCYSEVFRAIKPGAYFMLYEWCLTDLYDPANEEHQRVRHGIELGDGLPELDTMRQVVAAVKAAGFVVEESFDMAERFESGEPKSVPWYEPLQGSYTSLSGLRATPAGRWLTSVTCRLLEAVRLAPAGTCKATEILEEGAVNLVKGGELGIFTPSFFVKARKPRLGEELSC
Type: biochemical
pKi: −log10 of the molar value.
Property name: pKi

1. CC(=CCC[C@@H](C)[C@H]1CC[C@H]2C3=CC=C4C[C@@H](O)CC[C@]4(C)[C@H]3CC[C@]12C)CF; 4.12
